test: clinical; conditions: human, plasma, intravenous, CL Mean, Dose Level 4, LD 1.00/CD 2.00 μg/kg/hr; full evaluable population
assay.metric: clearance (mL/min)
Give just the number in mL/min; leave the unit off.

# return recorded clearance for input Cc1cccc([C@H](C)c2cnc[nH]2)c1C
370

---

assay: clinical; details: human, plasma, intravenous, 0.2 ug/kg, CL, Group I (≥2 to <6 y); Dose Level 1 (LD 0.25/CD 0.2 μg/kg/hr); geometric mean; full evaluable population
assay.metric: clearance (mL/min)
Give just the number in mL/min; leave the unit off.

# return recorded clearance for input Cc1cccc([C@H](C)c2cnc[nH]2)c1C [dexmedetomidine]
271

---

assay: clinical; conditions: human, plasma, intravenous, Vd, Table 30 key summary (mean); Dose Level 4, LD 1.00/CD 2.00 μg/kg/hr; full evaluable population
assay.metric: Vd (L)
Give just the number in L; leave the unit off.

# return recorded Vd for input Cc1cccc([C@H](C)c2cnc[nH]2)c1C
62.2

---

assay: clinical; settings: human, plasma, intravenous, t1/2 Mean, Dose Level 3, LD 1.00/CD 0.7 μg/kg/hr; full evaluable population
assay.metric: half-life (min)
Give just the number in min; leave the unit off.

# return recorded half-life for input Cc1cccc([C@H](C)c2cnc[nH]2)c1C
123

---

test: clinical; conditions: human, plasma, intravenous, 0.7 ug/kg, CL, Group I (≥2 to <6 y); Dose Level 3 (LD 1.00/CD 0.7 μg/kg/hr); geometric mean; full evaluable population
assay.metric: clearance (mL/min)
Give just the number in mL/min; leave the unit off.

# return recorded clearance for input Cc1cccc([C@H](C)c2cnc[nH]2)c1C [dexmedetomidine]
276

---

test: clinical; conditions: human, plasma, intravenous, CL, Geo. Mean of individual Bayesian estimates, 6 y-<17 y (n = 29)
assay.metric: clearance
Reply with a number, then the unit it belongs to.

# return recorded clearance for input Cc1cccc([C@H](C)c2cnc[nH]2)c1C
408 mL/min

---

assay: clinical; conditions: human, plasma, intravenous, AUC0-t, Table 30 key summary (mean); Dose Level 3, LD 1.00/CD 0.7 μg/kg/hr; full evaluable population
assay.metric: AUC(0-t) (ng·h/mL)
Give just the number in ng·h/mL; leave the unit off.

# return recorded AUC(0-t) for input Cc1cccc([C@H](C)c2cnc[nH]2)c1C [dexmedetomidine]
17

---

test: clinical; details: human, plasma, intravenous, Tmax Median, Dose Level 1, LD 0.25/CD 0.2 μg/kg/hr; full evaluable population
assay.metric: Tmax

# return recorded Tmax for input Cc1cccc([C@H](C)c2cnc[nH]2)c1C
6.04 h

---

assay: clinical; conditions: human, plasma, intravenous, 2 ug/kg, Vd, Group II (≥6 to <17 y); Dose Level 4 (LD 1.00/CD 2.00 μg/kg/hr); geometric mean; full evaluable population
assay.metric: Vd (L)
Give just the number in L; leave the unit off.

# return recorded Vd for input Cc1cccc([C@H](C)c2cnc[nH]2)c1C [dexmedetomidine]
72.8

---

assay: clinical; details: human, plasma, intravenous, Vd Mean, Dose Level 2, LD 0.50/CD 0.4 μg/kg/hr; full evaluable population
assay.metric: Vd (L)
Give just the number in L; leave the unit off.

# return recorded Vd for input Cc1cccc([C@H](C)c2cnc[nH]2)c1C
50.6

---

assay: clinical; conditions: human, in vivo, weight adjusted CL
assay.metric: clearance

# return recorded clearance for input Cc1cccc([C@H](C)c2cnc[nH]2)c1C [dexmedetomidine]
~10 mL/min/kg

---

assay: clinical; settings: human, in vivo, clearance
assay.metric: clearance

# return recorded clearance for input Cc1cccc([C@H](C)c2cnc[nH]2)c1C
~95 mL/min

---

assay: clinical; settings: human, plasma, intravenous, CL Mean, Dose Level 1, LD 0.25/CD 0.2 μg/kg/hr; full evaluable population
assay.metric: clearance (mL/min)
Give just the number in mL/min; leave the unit off.

# return recorded clearance for input Cc1cccc([C@H](C)c2cnc[nH]2)c1C
537

---

test: clinical; settings: human, plasma, intravenous, t1/2 Median, Dose Level 2, LD 0.50/CD 0.4 μg/kg/hr; full evaluable population
assay.metric: half-life (h)
Give just the number in h; leave the unit off.

# return recorded half-life for input Cc1cccc([C@H](C)c2cnc[nH]2)c1C [dexmedetomidine]
1.69

---

assay: clinical; settings: human, plasma, intravenous, Weight-Adjusted Vd, Geometric Mean (individual Bayesian estimates), Including Additional 11 Subjects; 1 month-<6 months (n = 14)
assay.metric: Vd
Reply with a number, then the unit it belongs to.

# return recorded Vd for input Cc1cccc([C@H](C)c2cnc[nH]2)c1C
3.02 L/kg

---

assay: clinical; details: human, plasma, intravenous, AUC0-∞ Median, Dose Level 2, LD 0.50/CD 0.4 μg/kg/hr; full evaluable population
assay.metric: AUC(0-inf) (ng·h/mL)
Give just the number in ng·h/mL; leave the unit off.

# return recorded AUC(0-inf) for input Cc1cccc([C@H](C)c2cnc[nH]2)c1C
5.52

---

assay: clinical; conditions: human, in vivo, Cmax
assay.metric: Cmax (ng/mL)
Give just the number in ng/mL; leave the unit off.

# return recorded Cmax for input Cc1cccc([C@H](C)c2cnc[nH]2)c1C [dexmedetomidine]
28.8

---

assay: clinical; conditions: human, in vivo
assay.metric: Vd (L)
Give just the number in L; leave the unit off.

# return recorded Vd for input Cc1cccc([C@H](C)c2cnc[nH]2)c1C [dexmedetomidine]
43

---

assay: clinical; conditions: human, plasma, intravenous, AUC0-t Mean, Dose Level 2, LD 0.50/CD 0.4 μg/kg/hr; full evaluable population
assay.metric: AUC(0-t)

# return recorded AUC(0-t) for input Cc1cccc([C@H](C)c2cnc[nH]2)c1C [dexmedetomidine]
6.46 ng·h/mL

---

experiment: clinical; conditions: human, in vivo, t1/2, Mean
assay.metric: half-life (h)
Give just the number in h; leave the unit off.

# return recorded half-life for input Cc1cccc([C@H](C)c2cnc[nH]2)c1C [dexmedetomidine]
1.96

---

assay: clinical; details: human, plasma, intravenous, Vd, Table 30 key summary (mean); Dose Level 2, LD 0.50/CD 0.4 μg/kg/hr; full evaluable population
assay.metric: Vd (L)
Give just the number in L; leave the unit off.

# return recorded Vd for input Cc1cccc([C@H](C)c2cnc[nH]2)c1C
50.6

---

test: clinical; settings: human, in vivo, half-life
assay.metric: half-life

# return recorded half-life for input Cc1cccc([C@H](C)c2cnc[nH]2)c1C
~2 h

---

assay: clinical; conditions: human, plasma, intravenous, Weight-adjusted Vd Median, Dose Level 2, LD 0.50/CD 0.4 μg/kg/hr; full evaluable population
assay.metric: Vd (L/kg)
Give just the number in L/kg; leave the unit off.

# return recorded Vd for input Cc1cccc([C@H](C)c2cnc[nH]2)c1C
2.49

---

test: clinical; conditions: human, in vivo, AUC0-t
assay.metric: AUC(0-t) (µg·h/mL)
Give just the number in µg·h/mL; leave the unit off.

# return recorded AUC(0-t) for input Cc1cccc([C@H](C)c2cnc[nH]2)c1C
0.117

---

experiment: clinical; settings: human, plasma, intravenous, Vss Median, Dose Level 2, LD 0.50/CD 0.4 μg/kg/hr; full evaluable population
assay.metric: Vd
Reply with a number, then the unit it belongs to.

# return recorded Vd for input Cc1cccc([C@H](C)c2cnc[nH]2)c1C
30.6 L

---

assay: clinical; details: human, plasma, intravenous, CL, Table 30 key summary (mean); Dose Level 4, LD 1.00/CD 2.00 μg/kg/hr; full evaluable population
assay.metric: clearance (mL/min)
Give just the number in mL/min; leave the unit off.

# return recorded clearance for input Cc1cccc([C@H](C)c2cnc[nH]2)c1C
370

---

assay: clinical; conditions: human, plasma, intravenous, Cmax Mean, Dose Level 1, LD 0.25/CD 0.2 μg/kg/hr; full evaluable population
assay.metric: Cmax (ng/mL)
Give just the number in ng/mL; leave the unit off.

# return recorded Cmax for input Cc1cccc([C@H](C)c2cnc[nH]2)c1C [dexmedetomidine]
0.48

---

assay: clinical; details: human, plasma, intravenous, CL, elimination clearance (population mean), final population PK model, Examples 5, 3, 1 and 7
assay.metric: clearance

# return recorded clearance for input Cc1cccc([C@H](C)c2cnc[nH]2)c1C
178 mL/min

---

assay: clinical; details: human, in vivo, elimination t1/2
assay.metric: half-life (h)
Give just the number in h; leave the unit off.

# return recorded half-life for input Cc1cccc([C@H](C)c2cnc[nH]2)c1C
4.77

---

assay: clinical; details: human, plasma, intravenous, Cmax Mean, Dose Level 3, LD 1.00/CD 0.7 μg/kg/hr; full evaluable population
assay.metric: Cmax (ng/mL)
Give just the number in ng/mL; leave the unit off.

# return recorded Cmax for input Cc1cccc([C@H](C)c2cnc[nH]2)c1C [dexmedetomidine]
3.39

---

experiment: clinical; conditions: human, plasma, intravenous, t1/2 Mean, Dose Level 1, LD 0.25/CD 0.2 μg/kg/hr; full evaluable population
assay.metric: half-life (h)
Give just the number in h; leave the unit off.

# return recorded half-life for input Cc1cccc([C@H](C)c2cnc[nH]2)c1C [dexmedetomidine]
1.55

---

assay: clinical; conditions: human, plasma, intravenous, 0.4 ug/kg, CL, Group II (≥6 to <17 y); Dose Level 2 (LD 0.50/CD 0.4 μg/kg/hr); geometric mean; full evaluable population
assay.metric: clearance (mL/min)
Give just the number in mL/min; leave the unit off.

# return recorded clearance for input Cc1cccc([C@H](C)c2cnc[nH]2)c1C
413
